Examples of molecules with documented IC50 follow.
Biological target: human VR1 (Homo sapiens)
Construct: expressed in transfected cells
Sequence (Q8NER1 whole entry): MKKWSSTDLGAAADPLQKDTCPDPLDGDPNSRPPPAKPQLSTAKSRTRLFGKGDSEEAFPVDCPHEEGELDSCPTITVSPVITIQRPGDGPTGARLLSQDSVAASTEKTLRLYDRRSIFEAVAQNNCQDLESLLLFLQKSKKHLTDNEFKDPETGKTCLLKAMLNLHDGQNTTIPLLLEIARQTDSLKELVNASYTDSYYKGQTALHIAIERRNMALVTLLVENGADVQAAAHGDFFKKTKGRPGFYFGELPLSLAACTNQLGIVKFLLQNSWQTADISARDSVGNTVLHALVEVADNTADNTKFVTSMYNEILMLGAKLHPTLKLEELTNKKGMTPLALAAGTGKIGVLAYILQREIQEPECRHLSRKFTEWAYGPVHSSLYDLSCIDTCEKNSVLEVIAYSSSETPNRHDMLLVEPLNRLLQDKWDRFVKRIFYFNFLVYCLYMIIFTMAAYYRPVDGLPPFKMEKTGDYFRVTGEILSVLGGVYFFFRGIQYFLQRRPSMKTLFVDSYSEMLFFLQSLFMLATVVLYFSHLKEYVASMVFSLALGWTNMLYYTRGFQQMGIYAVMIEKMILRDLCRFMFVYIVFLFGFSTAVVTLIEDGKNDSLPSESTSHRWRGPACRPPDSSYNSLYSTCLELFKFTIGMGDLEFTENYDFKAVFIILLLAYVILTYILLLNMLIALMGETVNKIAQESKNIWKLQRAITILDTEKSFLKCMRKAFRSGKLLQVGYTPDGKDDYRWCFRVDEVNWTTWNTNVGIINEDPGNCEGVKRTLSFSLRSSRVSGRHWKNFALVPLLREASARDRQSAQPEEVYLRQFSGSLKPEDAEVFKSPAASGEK
Assay: Capsaicin-induced Ca2+ influx in the human VR1-transfected CHO cell line (Assay 1)
Type: cell-based
Details: human VR1-CHOluc9aeq cells, 10 nM capsaicin; compound purity about 40 to 90%; read-out: hVR1 class

{"columns": ["MOLECULE", "EXPERIMENTAL SYSTEM", "IC50"],
 "data": [
  ["O=C(Nc1ccc2ccccc2c1)Nc1ccccc1CCO", "human VR1 (Homo sapiens)", "100 to 500 nM"],
  ["COc1ccc2c(c1)C(NC(=O)Nc1ccc(F)cc1)CCC2 (centres unmarked)", "human VR1 (Homo sapiens)", "500 to 1000 nM"],
  ["COc1ccc(-c2cccc(NC(=O)Nc3ccccc3CCO)c2)cc1", "human VR1 (Homo sapiens)", "< 100 nM"],
  ["O=C(Nc1cccc(Oc2ccccc2)c1)Nc1ccccc1CCO", "human VR1 (Homo sapiens)", "< 100 nM"],
  ["N#Cc1ccc(-c2cccc(NC(=O)Nc3ccccc3CCO)c2)cc1", "human VR1 (Homo sapiens)", "< 100 nM"]
]}
